test system: SW480; test: drug sensitivity score (DSS, integrated dose-response area); higher = more sensitive (stronger viability reduction); extreme values may be limits of the assay; conditions: shRNA: SND1 shRNA1 (SND1 silenced)
MEASURED_PROPERTY: drug sensitivity score (DSS)
Give bare numbers, in DSS.

Value sought for every listed compound: drug sensitivity score.
1. COc1cc([C@@H]2c3cc4c(cc3[C@@H](O[C@@H]3O[C@@H]5CO[C@@H](c6cccs6)O[C@H]5[C@H](O)[C@H]3O)[C@H]3COC(=O)[C@H]23)OCO4)cc(OC)c1O [Teniposide]
2. NC(=O)c1cccc(-c2cccc(OC(=O)NC3CCCCC3)c2)c1
3. CC[C@H](C)C(=O)O[C@H]1C[C@@H](C)C=C2C=C[C@H](C)[C@H](CC[C@@H]3C[C@@H](O)CC(=O)O3)[C@H]21
4. Cn1cnc2c(F)c(Nc3ccc(Br)cc3F)c(C(=O)NOCCO)cc21
5. COc1cc2/c(=N/c3ccc(Br)cc3F)nc[nH]c2cc1OCC1CCN(C)CC1
6. Cc1c(CN2CCN(C(=O)[C@H](C)O)CC2)sc2c(N3CCOCC3)nc(-c3cnc(N)nc3)nc12
7. COCC(=O)NC/C=C/c1ccc2ncnc(Nc3ccc(Oc4ccc(C)nc4)c(C)c3)c2c1
8. O=S(=O)(c1cccc2c(O)nccc12)N1CCCNCC1 [Hydroxyfasudil]

9.1
0.2
0
11.9
2.1
11
3.4
1.6

Value sought for every listed compound: drug sensitivity score.
1. CNC(=O)c1ccccc1Nc1nc(Nc2ccc3c(c2OC)CCC[C@H](N2CCN(CCO)CC2)C3)ncc1Cl
2. O=C(NOC[C@H](O)CO)c1ccc(F)c(F)c1Nc1ccc(I)cc1F
3. O=C(O)CSc1cc(NS(=O)(=O)c2ccc(Br)cc2)c2ccccc2c1O
4. N#CC(c1ccnc(OCc2ccc(CN3CCOCC3)cc2)n1)c1nc2ccccc2s1 (stereo unspecified)
5. CC[C@H](C)C(=O)O[C@H]1C[C@H](O)C=C2C=C[C@H](C)[C@H](CC[C@@H](O)C[C@@H](O)CC(=O)O)[C@H]21
6. CC/C(=C(\c1ccc(O)cc1)c1ccc(OCCN(C)C)cc1)c1ccccc1 [4-hydroxytamoxifen]
7. COc1cccc2c1c(O)c(C(=O)N(C)c1ccc(C(F)(F)F)cc1)c(=O)n2C
8. COc1cc2c(cc1-c1c(C)noc1C)ncc1[nH]c(=O)n([C@H](C)c3ccccn3)c12

[3.9, 17.9, 14.5, 2.3, 0, 6.8, 3.7, 1.4]
